FYI, the data here is from the OPERA property sets (Mansouri et al. 2018).

Value Type: ready biodegradability

Smiles Text	Endpoint Value
O=C(O)c1cccc(Cl)c1	readily biodegradable
COc1ccccc1N	readily biodegradable
c1ccc(COP(OCc2ccccc2)OCc2ccccc2)cc1	readily biodegradable

* * *

Value Type: log10 Koa
Field format: numeric only.

These solved cases illustrate the format of a correct answer.
Molecule	Value Type	Endpoint Value
Clc1cccc(-c2c(Cl)ccc(Cl)c2Cl)c1Cl	log10 Koa	8.8
Clc1ccc2ccccc2c1	log10 Koa	5.8
Cc1ccccc1C	log10 Koa	3.91
O=C1CCCC1	log10 Koa	3.67
Clc1ccc(-c2ccccc2)cc1	log10 Koa	6.8
Clc1ccc(-c2c(Cl)ccc(Cl)c2Cl)cc1Cl	log10 Koa	9.06
CC(C)OC(C)C	log10 Koa	2.66
O=C(O)c1ccc(O)cc1	log10 Koa	8.08
Clc1cc2c(cc1Cl)Oc1c(cc(Cl)c(Cl)c1Cl)O2	log10 Koa	10.6
Clc1cc2c(Cl)c(Cl)c(Cl)cc2c(Cl)c1Cl	log10 Koa	9.58

query: May I ask what log10 Koa has been recorded for Clc1cc2oc3c(Cl)c(Cl)c(Cl)cc3c2cc1Cl ?
result: 10.4

query: May I ask what log10 Koa has been recorded for c1ccc2c(c1)Cc1ccccc1-2 ?
result: 6.79

query: May I ask what log10 Koa has been recorded for Clc1cc(Cl)c(-c2cc(Cl)c(Cl)c(Cl)c2Cl)cc1Cl ?
result: 9.88

query: May I ask what log10 Koa has been recorded for O=S1OC[C@@H]2[C@H](CO1)[C@]1(Cl)C(Cl)=C(Cl)[C@@]2(Cl)C1(Cl)Cl (some centres undefined) ?
result: 8.64
